System: SNB-75 CNS
Experiment: NCI-60 one-dose screen, 48 h (100 = growth as untreated, 0 = no growth, -100 = all killed)
Conditions: 10 µM unless noted
Method: Growth inhibition of the SNB-75 human tumor cell line is measured as a screen for anti-cancer activity. Cells are grown in 96 well plates and exposed to the test compound for 48 hours. Compounds are tested at a single concentration, which is 10^-5 M for most compounds. The reported endpoint is percent growth (GI% or GIPRCNT), where numbers from 0 - 100% represent growth inhibition, and numbers from -100% - 0 represent cell death. For example, a value of 40 represents 60% growth inhibition. […]
The panel holds about 83,000 compounds, 20% with a hit somewhere; the sample as a whole holds those more often. Active and inactive are the calls of the source. Rule for the calls: active = growth percent below 10; inactive = the rest.
ASSAY_METRIC: growth

Here is how some compounds turned out for growth.
[
  {
    "COMPOUND": "CCCCCCCC/C=C\\CCCCCCCCOc1ccc(CC(=O)NCC[N+]2(C)CCCC2)cc1",
    "MEASURED_VALUE": "43.4% (inactive)"
  },
  {
    "COMPOUND": "Nc1nc(=O)n([C@H]2CC=C(CO)O2)cc1F",
    "MEASURED_VALUE": "102% (inactive)"
  },
  {
    "COMPOUND": "CCNCCNc1c(C)c(-c2ccc(C(F)(F)F)cc2)c(C#N)c2nc3ccccc3n12",
    "MEASURED_VALUE": "57.6% (inactive)"
  },
  {
    "COMPOUND": "Cc1[nH]c(C(=O)Nc2ccc(C(N)=O)cc2OC(C)C)c(Cl)c1Cl",
    "MEASURED_VALUE": "93.3% (inactive)"
  },
  {
    "COMPOUND": "CCN1C(=O)N(CC)C2C1NN=c1s/c(=C3\\C(=O)N(C)c4ccccc43)c(=O)n12 (stereo unspecified)",
    "MEASURED_VALUE": "-10.8% (active)"
  },
  {
    "COMPOUND": "Nc1c(C(=O)c2ccc(Cl)cc2)sc(Nc2ccccc2)c1-c1nc2ccccc2s1",
    "MEASURED_VALUE": "18.1% (inactive)"
  },
  {
    "COMPOUND": "O=C1OCC2=C1C(c1cccc(F)c1)c1cc3c(cc1N2CCO)CCC3 (stereo unspecified)",
    "MEASURED_VALUE": "29.6% (inactive)"
  },
  {
    "COMPOUND": "O=S(=O)(c1ccc(NCSc2nc3ccccc3s2)cc1)c1ccc(NCSc2nc3ccccc3s2)cc1",
    "MEASURED_VALUE": "81.6% (inactive)"
  },
  {
    "COMPOUND": "O=C(/C=C/c1ccc([N+](=O)[O-])cc1)c1cccc(Nc2nc(Nc3ccccc3)nc(Nc3ccccc3)n2)c1",
    "MEASURED_VALUE": "52.4% (inactive)"
  },
  {
    "COMPOUND": "Nc1ncc(-c2ccc3ncnc(N4CCc5ccc(Cl)cc54)c3c2)cn1",
    "MEASURED_VALUE": "-11.6% (active)"
  }
]

In: Query (compound): `O=C(c1ccccc1)[C@@H](c1ccccc1)[C@]1(O)C(=O)Nc2ccccc21` ; field requested: growth
Out: 83.7% (inactive)

In: Query (compound): COc1ccc(S(=O)(=O)NC2c3ccccc3CC2O)cc1OC (stereo unspecified) ; field requested: growth
Out: 80.1% (inactive)

In: Query (compound): `COC(=O)c1ccc(-n2cc(CCCOS(=O)(=O)c3ccc(F)cc3)nn2)cc1` ; field requested: growth
Out: 94.5% (inactive)

In: Query (compound): `COc1ccc(Nc2nccc(Nc3ccc4[nH]ncc4c3)n2)cc1` ; field requested: growth
Out: 65.8% (inactive)

In: Query (compound): O=C1CC2C=CCN2C=C1NC(=O)c1ccccc1 (stereo unspecified) ; field requested: growth
Out: 96.8% (inactive)
